tested on: Nucleic Acid; experiment: Percent of interaction with wheat germ tRNA (type V) at a concentration of 35 uM; type: functional; details: Triticum aestivum
Sorting guide: entries reporting tRNA peak exclusion beneath 60% go in the Fulfilled pile, the rest go in the Not fulfilled pile.

CN[C@@H]1[C@H](O[C@H]2[C@H](O[C@H]3[C@H](O)[C@@H](O)[C@H](N=C(N)N)[C@@H](O)[C@@H]3N=C(N)N)O[C@@H](C)[C@]2(O)C=O)O[C@@H](CO)[C@H](O)[C@H]1O    Fulfilled
NC[C@@H]1O[C@H](O[C@H]2[C@@H](O)[C@H](O[C@@H]3[C@@H](O)[C@H](N)C[C@H](N)[C@H]3O[C@H]3O[C@H](CN)[C@@H](O)[C@H](O)[C@H]3N)O[C@@H]2CO)[C@H](N)[C@@H](O)[C@@H]1O    Not fulfilled
NC[C@H]1OC(O[C@H]2[C@H](O)C(O)[C@H](N)C[C@@H]2N)C(N)[C@@H](O)[C@@H]1O (single isomer, unassigned)    Fulfilled
NC[C@@H]1O[C@@H](O[C@H]2[C@H](O)[C@@H](O[C@H]3O[C@H](CO)[C@@H](O)[C@H](N)[C@H]3O)[C@H](N)C[C@@H]2N)[C@@H](O)[C@H](O)[C@H]1O    Fulfilled
CCN[C@@H]1C[C@H](N)[C@@H](O[C@H]2OC(CN)=CC[C@H]2N)[C@H](O)[C@H]1O[C@H]1OC[C@](C)(O)[C@H](NC)[C@H]1O    Fulfilled
NC1C[C@@H](N)C(O)[C@@H](O)[C@@H]1O (single isomer, unassigned)    Fulfilled
NC(Cc1ccccc1)C(=O)NCC1O[C@@H](O[C@@H]2C(N)C[C@@H](N)[C@@H](O)C2O)[C@@H](N)C(O)[C@@H]1O (some centres not stated)    Not fulfilled
